Molecular target: human IRAK4 kinase domain (aa 154-460) (Homo sapiens)
Construct: human IRAK4 kinase domain (aa 154-460; GenBank ID AF445802)
Sequence (Q9NWZ3 154-460): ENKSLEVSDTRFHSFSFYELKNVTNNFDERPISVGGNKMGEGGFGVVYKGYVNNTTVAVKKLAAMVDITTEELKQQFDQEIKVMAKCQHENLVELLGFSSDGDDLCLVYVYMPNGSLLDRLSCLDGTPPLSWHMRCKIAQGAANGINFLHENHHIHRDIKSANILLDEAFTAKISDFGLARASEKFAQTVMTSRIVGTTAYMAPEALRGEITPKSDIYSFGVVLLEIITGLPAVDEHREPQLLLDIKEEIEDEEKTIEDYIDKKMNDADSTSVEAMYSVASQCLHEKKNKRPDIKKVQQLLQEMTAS
Assay: IRAK4 Enzymatic DELFIA Assay
Conditions: 0.6 mM ATP (KM); 114 pM IRAK4 kinase domain; 200 nM substrate; 5% DMSO
Counter-ions that a name gives are not always drawn.
readout name: IC50 (nM)

CC(C)Oc1cc2c(OC3CCNC3)ccnc2cc1C(N)=O (stereo not shown)	611

[P] CC(C)Oc1cc2c(O[C@@H]3CCCNC3)ncc(Cl)c2cc1C(N)=O [Example 55, hydrochloride]
[Q] CC(C)Oc1cc2c(O[C@@H]3CCCN(C(=O)c4cnco4)C3)ccnc2cc1C(N)=O [Example 11, formate]
[R] CC(C)Oc1cc2c(O[C@H]3CCNC3)nccc2cc1C(N)=O
INPUT: Hey, quick one: sort these by IC50, largest value first please. Answer by writing out the labels in the requested order.
OUTPUT: R, Q, P

###

biological target: human IRAK4 kinase domain (aa 154-460) (Homo sapiens, UniProt Q9NWZ3); construct: human IRAK4 kinase domain (aa 154-460; GenBank ID AF445802); test: IRAK4 Enzymatic DELFIA Assay; settings: 0.6 mM ATP (KM); 114 pM IRAK4 kinase domain; 200 nM substrate; 5% DMSO
pIC50: −log10 of the molar value. Structures can show the parent of a compound that is named as a salt.
readout name: pIC50

CCOc1cc2c(O[C@@H]3CCCNC3)ccnc2cc1C(N)=O [Example 65, hydrochloride]	6.38
CC[C@H](C)Oc1cc2c(O[C@@H]3CCCNC3)ccnc2cc1C(N)=O [Example 72]	5.96
N#CCC(=O)N1CCC[C@@H](Oc2ccnc3cc(C(N)=O)c(OC(F)F)cc23)C1 [Example 31]	7.00

[P] CC(C)Oc1cc2c(O[C@@H]3CCCNC3)ncc(Br)c2cc1C(N)=O [Example 54, hydrochloride]
[Q] CC(C)Oc1cc2c(O[C@@H]3CCCN(C(=O)CO)C3)ccnc2cc1C(N)=O [Example 4, formate]
INPUT: Please tell me which of the two, P or Q , has the higher reported pIC50 value. Selection: enter the item's label.
OUTPUT: Q
(Q: 7.89, P: 6.23)

###

Biological target: human IRAK4 kinase domain (aa 154-460) (Homo sapiens)
Construct: human IRAK4 kinase domain (aa 154-460; GenBank ID AF445802)
Sequence (Q9NWZ3 154-460): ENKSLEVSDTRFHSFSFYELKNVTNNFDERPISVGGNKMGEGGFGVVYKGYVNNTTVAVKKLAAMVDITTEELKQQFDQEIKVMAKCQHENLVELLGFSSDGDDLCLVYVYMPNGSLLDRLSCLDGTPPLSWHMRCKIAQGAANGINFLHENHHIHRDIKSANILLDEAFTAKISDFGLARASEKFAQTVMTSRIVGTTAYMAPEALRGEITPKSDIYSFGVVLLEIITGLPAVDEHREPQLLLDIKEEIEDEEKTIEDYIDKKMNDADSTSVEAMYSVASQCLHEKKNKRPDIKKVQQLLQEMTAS
Assay: IRAK4 Enzymatic DELFIA Assay
Details: 0.6 mM ATP (KM); 114 pM IRAK4 kinase domain; 200 nM substrate; 5% DMSO
Where a name gives a salt, the structure may show the parent alone.
readout name: IC50 (nM)

Past entries and their recorded results:
CC(C)Oc1cc2c(OC3CCCN(S(C)(=O)=O)C3)ccnc2cc1C(N)=O (centres unmarked)	254
COc1cc2c(O[C@@H]3CCCN(C(=O)CC#N)C3)ccnc2cc1C(N)=O	28
CC(C)Oc1cc2c(OC3CCCNC3)nccc2cc1C(N)=O (centres unmarked) [Example 64, hydrochloride]	160
CCOc1cc2c(O[C@@H]3CCCN(C(=O)CC#N)C3)ccnc2cc1C(N)=O	35
CC(C)Oc1cc2c(O[C@@H]3CCCNC3)ncc(C#N)c2cc1C(N)=O	1590
CC(C)Oc1cc2c(O[C@@H]3CCCN(C(=O)C(F)(F)F)C3)ccnc2cc1C(N)=O [Example 9, formate]	263
CC(C)Oc1cc2c(O[C@H]3CN(C(=O)CC#N)CC[C@@H]3C)nccc2cc1C(N)=O	29
Cc1cc(O[C@@H]2CCCNC2)c2cc(OC(C)C)c(C(N)=O)cc2n1 [Example 68, trifluoroacetate]	1300
CC(C)Oc1cc2c(OC3CCN(C(=O)CC#N)CC3)nccc2cc1C(N)=O	514
CC(C)Oc1cc2c(O[C@H]3CN(C(=O)CC#N)CC[C@@H]3C)ccnc2cc1C(N)=O	65

[1] CC(C)Oc1cc2c(OC3CCNCC3)nccc2cc1C(N)=O
[2] CC(=O)N1CCCC(Oc2ccnc3cc(C(N)=O)c(OC(C)C)cc23)C1 (centres unmarked)
INPUT: Please tell me which of the two, 1 or 2 , has the higher reported IC50 value. Selection: enter the item's label.
OUTPUT: 2

Value source: patent US20180230127A1
